Assay: chemical genetic growth profiling, strain panel (AID 1159580);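 further: tested at 20 µM; growth read once vehicle control cultures reached saturation at 30 °C; 1 = growth at the plate median or of vehicle wells; lower values mean less growth of the strain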
Conditions: S. cerevisiae deletion strains, growth OD, locus YKR091W, strain srl3, stronger effect = lower value
About 2,000 (36%) of roughly 5,500 compounds were called active. Another 18% or so got no clear call; they are omitted. The list shows a part of the results.
outcome.measure: normalized growth
One number for each entry.

Hey, can you go through the list below and give me normalized growth for every item?
1. CCOc1ccc(Cc2nccc3cc(OCC)c(OCC)cc23)cc1OCC
2. CN(C)c1nc(N(C)C)nc(N(C)C)n1
3. COc1ccc(Cc2nccc3cc(OC)c(OC)cc23)cc1OC
4. C[N+]1(C)CCc2cc3c(cc2[C@H]1C1OC(=O)c2c1ccc1c2OCO1)OCO3 (stereo not given in full)
5. O=C(O)c1cc2cc(Cl)ccc2[nH]1

result:
1. 0.979
2. 0.962
3. 0.998
4. 0.988
5. 0.994

###

Assay: chemical genetic growth profiling, strain panel (AID 1159580);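 further: tested at 20 µM; growth read once vehicle control cultures reached saturation at 30 °C; 1 = growth at the plate median or of vehicle wells; lower values mean less growth of the strain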
Conditions: S. cerevisiae deletion strains, growth OD, locus YJL164C, strain tpk1
Among all 5,500 compounds or so, about 2,000 (36%) were called active. Another 18% or so got no clear call; they are omitted. Cut-off read from the data, not from the text of the source: active = normalized growth mostly below about 0.91 (no sharp cut-off); inconclusive = no clear call, values can overlap the other calls; inactive = mostly above about 0.92. The list shows a part of the results.
Form entry, call: pick from True for active, False for inactive

Look over these answered cases.
query: # lookup: test call for O=C(O)CCCN1C(=O)c2cccc3cccc(c23)C1=O
result: False

query: # lookup: test call for Cc1cc(O)c2c(c1O)C(=O)c1c(O)cc(C)c(O)c1C2=O
result: False

query: # lookup: test call for Cn1c(=O)[nH]c(=O)c2[nH]cnc21
result: False

query: # lookup: test call for CC1(C)C[C@@H]2C(=O)CC[C@H]3O[C@]3(C)CC[C@H]21
result: False

query: # lookup: test call for CCOc1ccc(Cc2nccc3cc(OCC)c(OCC)cc23)cc1OCC
result: False

Further cases:
query: # lookup: test call for CCOC(=O)C1=C(C)NC(C)=C(C(=O)OC)C1c1cccc([N+](=O)[O-])c1 (stereo not given)
result: False

query: # lookup: test call for CC(C)CCCC(C)[C@H]1CCC2C3CC[C@H]4CC(=O)CC[C@]4(C)C3CC[C@@]21C (stereo not given in full)
result: False

query: # lookup: test call for CC(=O)OC1CCC23C(=O)OC45CCC(C6=CC(=O)OC6)C4(C)CCC2C5CCC3(O)C1 (stereo not given)
result: False

query: # lookup: test call for O=c1cc(-c2ccc(O)cc2)oc2cc(O[C@@H]3O[C@H](CO)[C@@H](O)[C@H](O)[C@H]3O[C@@H]3OC[C@](O)(CO)[C@H]3O)cc(O)c12
result: False

query: # lookup: test call for O=C(/C=C/C(=O)Oc1ccccc1C(=O)O)Oc1ccccc1C(=O)O
result: False

query: # lookup: test call for C[C@]12CCC3C(CC[C@H]4C[C@@H](O)CC[C@]34C)C1CCC2=O (stereo not given in full)
result: True

###

Experiment: chemical genetic growth profiling, strain panel (AID 1159580);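 further: tested at 20 µM; growth read once vehicle control cultures reached saturation at 30 °C; 1 = growth at the plate median or of vehicle wells; lower values mean less growth of the strain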
Settings: S. cerevisiae deletion strains, growth OD, locus YER016W, strain bim1
The campaign covered roughly 5,500 compounds. About 2,000 (36%) were called active. Not shown: some 18% with an inconclusive outcome. Rule as the data show it: active = normalized growth mostly below about 0.91 (no sharp cut-off); inconclusive = no clear call, values can overlap the other calls; inactive = mostly above about 0.92. Some of the results follow.
Form entry, call: pick from true (active), false (inactive)

query: # lookup: test call for FC(F)(F)COCC(F)(F)F
result: false

# next compound below
query: # lookup: test call for Cn1c([N+](=O)[O-])cnc1COC(N)=O
result: false
